target: adrenergic α1 receptor
experimentalProtocol: adrenergic α1 receptor binding test ([3H] Prazosin Binding Test)
Set-up: species or system SD rats
details: 1 nM [3H] Prazosin, rat cortex, room temperature, 60 minutes
# Ki values compiled below
measurementType: Ki (nM)

> print(dat)
                                   compound  measurementtype  readoutrelation  number
1  CCC(F)c1cc(N2CCN(C)CC2)cc(-c2ccccc2C#N)c1Cl (stereo not drawn) [Example 20]               Ki                =     314
2  CCC(O)c1cc(N2CCN(CC)CC2)cc(-c2ccccc2)c1OC (stereo not drawn) [Example 83]               Ki                >    1000
3  CCN1CCN(c2cc(C(=O)Cc3ccccc3)c(OC)c(-c3ccccc3)c2)CC1 [Example 92]               Ki                =     942
4  CC(C)S(=O)(=O)Nc1cc(N2CCN(C)CC2)cc(-c2ccccc2Cl)c1Cl [Example 182]               Ki                =     186
5  CCCS(=O)(=O)Nc1cc(N2CCN(C)CC2)cc(-c2ccccc2Cl)c1Cl [Example 35]               Ki                =      17
6  CCN1CCN(c2cc(-c3ccccc3)c(OC)c(C(O)Cc3ccccc3)c2)CC1 (stereo not drawn) [Example 94]               Ki                =     600
7  CCN1CCN(c2cc(-c3ccccc3C)c(Cl)c(S(C)(=O)=O)c2)CC1 [Example 158]               Ki                >    1000
8  CCC(F)c1cc(N2CCN(CCc3ccccn3)CC2)cc(-c2ccccc2C)c1Cl (stereo not drawn) [Example 213]               Ki                =     236
9  CCN1CCN(c2cc(-c3ccccc3)c(OC)c(S(=O)(=O)CC)c2)CC1 [Example 133]               Ki                >    1000
